Assay: Cytotoxicity, LDH assay, HaCaT cells
Format: cell-based, human
Conditions: human, HaCaT keratinocytes; 50 μg/mL, 24 h, mean ± SD of three; read-out: Cell viability HaCaT
VALUE_KIND: viability at 24 h, 50 μg/mL
Include the unit after the number when you answer.

CC(=O)OC1CC2(C)C(C(OC(C)=O)CC3(C)C2C(O)C=C2C4C(C)C(C)(O)CC(OC(C)=O)C4(C)CCC23C)C(C)(C)C1O (centres unmarked) [Compound 2]	61.8%

Consider now this further molecule.
GET /value?item= CCC(C)C(=O)OC1C=C2C3C(C)C(C)(O)CC(OC(C)=O)C3(C)CCC2(C)C2(C)CC(OC(C)=O)C3C(C)(C)C(O)C(OC(C)=O)CC3(C)C12 (centres unmarked) [Compound 1] &field=viability at 24 h, 50 μg/mL returns 65.7%

* * *

Assay: Cytotoxicity, LDH assay, HTB140 cells
Type: cell-based, human
Details: human, HTB140 melanoma cells, 50 μg/mL, 24 h, mean ± SD of three; read-out: Cell viability HTB140
VALUE_KIND: viability at 24 h, 50 μg/mL (%)
The figure you give is taken to be in %; do not add the unit.

CCC(C)C(=O)OC1C=C2C3C(C)C(C)(O)CC(OC(C)=O)C3(C)CCC2(C)C2(C)CC(OC(C)=O)C3C(C)(C)C(O)C(OC(C)=O)CC3(C)C12 (centres unmarked)	59.5

Consider now this further compound.
GET /value?item= CC(=O)OC1CC2(C)C(C(OC(C)=O)CC3(C)C2C(O)C=C2C4C(C)C(C)(O)CC(OC(C)=O)C4(C)CCC23C)C(C)(C)C1O (centres unmarked) &field=viability at 24 h, 50 μg/mL returns 92

* * *

As shown below, each of these compounds has a reported viability at 24 h, 20 μg/mL value.
Experiment: Cytotoxicity, LDH assay, Caco-2 cells
Assay type: cell-based, human
Settings: human, Caco-2; 20 μg/mL, 24 h, mean ± SD of three; read-out: Cell viability Caco-2
Include the unit after the number when you answer.

CC(=O)OC1CC2(C)C(C(OC(C)=O)CC3(C)C2C(O)C=C2C4C(C)C(C)(O)CC(OC(C)=O)C4(C)CCC23C)C(C)(C)C1O (centres unmarked)	82%

Consider now this further compound.
GET /value?item= CCC(C)C(=O)OC1C=C2C3C(C)C(C)(O)CC(OC(C)=O)C3(C)CCC2(C)C2(C)CC(OC(C)=O)C3C(C)(C)C(O)C(OC(C)=O)CC3(C)C12 (centres unmarked) &field=viability at 24 h, 20 μg/mL returns 78.5%

* * *

As shown below, each of these molecules has a reported viability at 24 h, 30 μg/mL value.
Test: Cytotoxicity, LDH assay, HTB140 cells
Assay type: cell-based, human
Details: human, HTB140 melanoma cells, 30 μg/mL, 24 h, mean ± SD of three; read-out: Cell viability HTB140
Include the unit after the number when you answer.

CCC(C)C(=O)OC1C=C2C3C(C)C(C)(O)CC(OC(C)=O)C3(C)CCC2(C)C2(C)CC(OC(C)=O)C3C(C)(C)C(O)C(OC(C)=O)CC3(C)C12 (centres unmarked)	78.9%

GET /value?item= CC(=O)OC1CC2(C)C(C(OC(C)=O)CC3(C)C2C(O)C=C2C4C(C)C(C)(O)CC(OC(C)=O)C4(C)CCC23C)C(C)(C)C1O (centres unmarked) &field=viability at 24 h, 30 μg/mL returns 94.3%

* * *

Assay: Cytotoxicity, LDH assay, HTB140 cells
Assay type: cell-based, human
Settings: human, HTB140 melanoma cells, 10 μg/mL, 24 h, mean ± SD of three; read-out: Cell viability HTB140
VALUE_KIND: viability at 24 h, 10 μg/mL

GET /value?item= CCC(C)C(=O)OC1C=C2C3C(C)C(C)(O)CC(OC(C)=O)C3(C)CCC2(C)C2(C)CC(OC(C)=O)C3C(C)(C)C(O)C(OC(C)=O)CC3(C)C12 (stereo not shown) [Compound 1] &field=viability at 24 h, 10 μg/mL returns 93.8%

* * *

Assay: Cytotoxicity, LDH assay, HT29 cells
Assay type: cell-based, human
Conditions: human, HT29 colon adenocarcinoma cells, 50 μg/mL, 24 h, mean ± SD of three; read-out: Cell viability HT29
VALUE_KIND: viability at 24 h, 50 μg/mL

CC(=O)OC1CC2(C)C(C(OC(C)=O)CC3(C)C2C(O)C=C2C4C(C)C(C)(O)CC(OC(C)=O)C4(C)CCC23C)C(C)(C)C1O (centres unmarked)	67.2%

Consider now this further compound.
GET /value?item= CCC(C)C(=O)OC1C=C2C3C(C)C(C)(O)CC(OC(C)=O)C3(C)CCC2(C)C2(C)CC(OC(C)=O)C3C(C)(C)C(O)C(OC(C)=O)CC3(C)C12 (centres unmarked) &field=viability at 24 h, 50 μg/mL returns 64.8%

* * *

Experiment: Cytotoxicity, LDH assay, PC3 cells
Assay type: cell-based, human
Details: human, PC3 prostate adenocarcinoma cells, 5 μg/mL, 24 h, mean ± SD of three; read-out: Cell viability PC3
VALUE_KIND: viability at 24 h, 5 μg/mL

CC(=O)OC1CC2(C)C(C(OC(C)=O)CC3(C)C2C(O)C=C2C4C(C)C(C)(O)CC(OC(C)=O)C4(C)CCC23C)C(C)(C)C1O (centres unmarked) [Compound 2]	96.6%

Consider now this further compound.
GET /value?item= CCC(C)C(=O)OC1C=C2C3C(C)C(C)(O)CC(OC(C)=O)C3(C)CCC2(C)C2(C)CC(OC(C)=O)C3C(C)(C)C(O)C(OC(C)=O)CC3(C)C12 (centres unmarked) [Compound 1] &field=viability at 24 h, 5 μg/mL returns 96.2%

* * *

Assay: Cytotoxicity, LDH assay, A375 cells
Assay type: cell-based, human
Conditions: human, A375 malignant melanoma cells; 50 μg/mL, 24 h, mean ± SD of three; read-out: Cell viability A375
As shown below, each of these compounds has a reported viability at 24 h, 50 μg/mL value.
The figure you give is taken to be in %; do not add the unit.

CC(=O)OC1CC2(C)C(C(OC(C)=O)CC3(C)C2C(O)C=C2C4C(C)C(C)(O)CC(OC(C)=O)C4(C)CCC23C)C(C)(C)C1O (centres unmarked) [Compound 2]	76.2

Consider now this further compound.
GET /value?item= CCC(C)C(=O)OC1C=C2C3C(C)C(C)(O)CC(OC(C)=O)C3(C)CCC2(C)C2(C)CC(OC(C)=O)C3C(C)(C)C(O)C(OC(C)=O)CC3(C)C12 (centres unmarked) [Compound 1] &field=viability at 24 h, 50 μg/mL returns 70.2

* * *

As shown below, each of these compounds has a reported viability at 24 h, 20 μg/mL value.
Experiment: Cytotoxicity, LDH assay, A375 cells
Format: cell-based, human
Conditions: human, A375 malignant melanoma cells; 20 μg/mL, 24 h, mean ± SD of three; read-out: Cell viability A375

CCC(C)C(=O)OC1C=C2C3C(C)C(C)(O)CC(OC(C)=O)C3(C)CCC2(C)C2(C)CC(OC(C)=O)C3C(C)(C)C(O)C(OC(C)=O)CC3(C)C12 (centres unmarked)	92.8%

Consider now this further compound.
GET /value?item= CC(=O)OC1CC2(C)C(C(OC(C)=O)CC3(C)C2C(O)C=C2C4C(C)C(C)(O)CC(OC(C)=O)C4(C)CCC23C)C(C)(C)C1O (centres unmarked) &field=viability at 24 h, 20 μg/mL returns 91.1%

* * *

As shown below, each of these molecules has a reported viability at 24 h, 5 μg/mL value.
Assay: Cytotoxicity, LDH assay, HaCaT cells
Format: cell-based, human
Conditions: human, HaCaT keratinocytes; 5 μg/mL, 24 h, mean ± SD of three; read-out: Cell viability HaCaT
The figure you give is taken to be in %; do not add the unit.

CCC(C)C(=O)OC1C=C2C3C(C)C(C)(O)CC(OC(C)=O)C3(C)CCC2(C)C2(C)CC(OC(C)=O)C3C(C)(C)C(O)C(OC(C)=O)CC3(C)C12 (centres unmarked) [Compound 1]	96.5

GET /value?item= CC(=O)OC1CC2(C)C(C(OC(C)=O)CC3(C)C2C(O)C=C2C4C(C)C(C)(O)CC(OC(C)=O)C4(C)CCC23C)C(C)(C)C1O (centres unmarked) [Compound 2] &field=viability at 24 h, 5 μg/mL returns 96.8

* * *

Assay: Cytotoxicity, LDH assay, PNT-2 cells
Type: cell-based, human
Conditions: human, PNT-2 prostate epithelial cells, 5 μg/mL, 24 h, mean ± SD of three; read-out: Cell viability PNT-2
VALUE_KIND: viability at 24 h, 5 μg/mL (%)
The figure you give is taken to be in %; do not add the unit.

CCC(C)C(=O)OC1C=C2C3C(C)C(C)(O)CC(OC(C)=O)C3(C)CCC2(C)C2(C)CC(OC(C)=O)C3C(C)(C)C(O)C(OC(C)=O)CC3(C)C12 (centres unmarked) [Compound 1]	96.6

Consider now this further compound.
GET /value?item= CC(=O)OC1CC2(C)C(C(OC(C)=O)CC3(C)C2C(O)C=C2C4C(C)C(C)(O)CC(OC(C)=O)C4(C)CCC23C)C(C)(C)C1O (centres unmarked) [Compound 2] &field=viability at 24 h, 5 μg/mL returns 97.5
